Target: CFTR ΔF508 mutant (Homo sapiens, UniProt P13569, DEL508-508)
Construct: expressed in transfected cells; host or cells: CFBE41o- cells, adenoviral transduction
Sequence (P13569 with tags, fused parts or gaps DEL508-508): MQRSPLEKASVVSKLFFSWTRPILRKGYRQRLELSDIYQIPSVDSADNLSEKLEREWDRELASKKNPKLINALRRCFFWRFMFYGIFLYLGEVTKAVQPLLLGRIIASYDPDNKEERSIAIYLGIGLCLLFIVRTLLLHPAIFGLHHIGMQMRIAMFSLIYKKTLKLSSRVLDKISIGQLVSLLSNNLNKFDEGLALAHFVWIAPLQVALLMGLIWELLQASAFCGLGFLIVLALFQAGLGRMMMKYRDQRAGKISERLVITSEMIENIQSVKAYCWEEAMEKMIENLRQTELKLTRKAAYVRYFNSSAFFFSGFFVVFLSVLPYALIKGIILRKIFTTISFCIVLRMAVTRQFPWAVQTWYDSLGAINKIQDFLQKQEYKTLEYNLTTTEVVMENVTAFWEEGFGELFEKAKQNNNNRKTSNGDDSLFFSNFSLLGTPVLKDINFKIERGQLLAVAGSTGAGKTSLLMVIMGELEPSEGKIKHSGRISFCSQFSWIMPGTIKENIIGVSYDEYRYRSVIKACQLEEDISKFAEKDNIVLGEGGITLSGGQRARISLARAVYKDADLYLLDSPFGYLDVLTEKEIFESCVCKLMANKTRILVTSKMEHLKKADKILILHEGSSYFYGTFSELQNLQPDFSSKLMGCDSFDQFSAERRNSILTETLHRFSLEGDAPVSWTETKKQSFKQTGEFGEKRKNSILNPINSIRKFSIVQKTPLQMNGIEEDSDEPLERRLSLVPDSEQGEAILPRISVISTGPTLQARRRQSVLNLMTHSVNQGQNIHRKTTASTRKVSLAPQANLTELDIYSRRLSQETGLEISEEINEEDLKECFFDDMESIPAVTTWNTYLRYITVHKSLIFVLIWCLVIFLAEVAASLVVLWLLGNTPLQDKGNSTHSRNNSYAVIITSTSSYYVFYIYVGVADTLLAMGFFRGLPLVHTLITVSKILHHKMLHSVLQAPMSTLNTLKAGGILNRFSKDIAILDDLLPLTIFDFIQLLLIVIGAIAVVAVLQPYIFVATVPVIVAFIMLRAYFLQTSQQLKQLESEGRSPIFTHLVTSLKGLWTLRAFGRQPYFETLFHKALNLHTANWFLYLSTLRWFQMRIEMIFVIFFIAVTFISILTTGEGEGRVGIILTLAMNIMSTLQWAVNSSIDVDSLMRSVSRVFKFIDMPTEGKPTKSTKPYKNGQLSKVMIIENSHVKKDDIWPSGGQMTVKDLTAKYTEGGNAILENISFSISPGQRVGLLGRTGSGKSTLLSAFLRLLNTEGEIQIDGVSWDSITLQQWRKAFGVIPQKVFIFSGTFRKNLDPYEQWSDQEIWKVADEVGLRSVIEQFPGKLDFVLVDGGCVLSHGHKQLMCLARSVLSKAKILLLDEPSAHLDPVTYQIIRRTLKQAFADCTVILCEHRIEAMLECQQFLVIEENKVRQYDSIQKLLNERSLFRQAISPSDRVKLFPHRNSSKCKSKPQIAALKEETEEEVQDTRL
Test: YFP-halide influx assay for the CFTR-ΔF508 mutation (CFBE41o- cells)
Format: cell-based
Settings: forskolin 10.67 μM
Observed property: % Activation (%)
Give the number; % is assumed, so skip it.

get_value(item= CC1(C)CN(C(=O)c2ncc(S(=O)(=O)c3ccc(OC(F)(F)F)cc3)cc2N)C1 , readout=% Activation) returns 111.0

The reported value for CC(C)[C@H](NC(=O)c1ncc(S(=O)(=O)c2ccc(OC(F)(F)F)cc2)cc1N)C(N)=O in terms of % Activation is 132.0

// % Activation value for COCC(=O)NNC(=O)c1ncc(S(=O)(=O)c2ccc(OC(F)(F)F)cc2)cc1N : 79.7

Sure, the documented % Activation for C[C@H](O)CNC(=O)c1nc(Oc2cccc(F)c2)c(S(=O)(=O)c2ccc(OC(F)(F)F)cc2)cc1N is 95.1

Consider CC(C)COCC(O)CNC(=O)c1ncc(S(=O)(=O)c2ccc(C(F)(F)F)cc2F)cc1N (stereo not drawn) . Its measured % Activation is 108.6

Please fill in: % Activation reported for C[C@H](O)CNC(=O)c1ncc(S(=O)(=O)NCc2ccc(F)cc2)cc1N = 59.3

Looking up C[C@@H](O)CNC(=O)c1ncc(S(=O)(=O)c2ccc(OC(F)(F)F)cc2)cc1N , I found its % Activation recorded as 98.5

Quick note, % Activation for CN(Cc1ccc(F)c(F)c1)S(=O)(=O)c1cnc(C(=O)NCC(O)C(F)(F)F)c(N)c1 (stereo not drawn) landed at 113.7

Nc1cc(S(=O)(=O)c2ccc(C(F)(F)F)cc2)cnc1C(=O)N1CC(F)(F)C1 yielded % Activation of 110.0

% Activation recorded for this compound, CC1CCN(S(=O)(=O)c2cnc(C(=O)NCC(O)C(F)(F)F)c(N)c2)CC1 (stereo not drawn) , is 111.0

Note to self: % Activation recorded for CN1CC[C@H](NC(=O)c2ncc(S(=O)(=O)c3ccc(OC(F)(F)F)cc3)cc2N)C1 was 78.0

Looking up Nc1cc(S(=O)(=O)c2ccc(OC(F)(F)F)cc2)cnc1C(=O)NC[C@@H](O)CO , I see its % Activation listed as 90.8

* * *

Molecular target: CFTR G551D mutant (Homo sapiens, UniProt P13569, G551D)
Construct: expressed in transfected cells; host or cells: HEK293 cells, reverse transfection with plasmids
Sequence (P13569 whole entry G551D): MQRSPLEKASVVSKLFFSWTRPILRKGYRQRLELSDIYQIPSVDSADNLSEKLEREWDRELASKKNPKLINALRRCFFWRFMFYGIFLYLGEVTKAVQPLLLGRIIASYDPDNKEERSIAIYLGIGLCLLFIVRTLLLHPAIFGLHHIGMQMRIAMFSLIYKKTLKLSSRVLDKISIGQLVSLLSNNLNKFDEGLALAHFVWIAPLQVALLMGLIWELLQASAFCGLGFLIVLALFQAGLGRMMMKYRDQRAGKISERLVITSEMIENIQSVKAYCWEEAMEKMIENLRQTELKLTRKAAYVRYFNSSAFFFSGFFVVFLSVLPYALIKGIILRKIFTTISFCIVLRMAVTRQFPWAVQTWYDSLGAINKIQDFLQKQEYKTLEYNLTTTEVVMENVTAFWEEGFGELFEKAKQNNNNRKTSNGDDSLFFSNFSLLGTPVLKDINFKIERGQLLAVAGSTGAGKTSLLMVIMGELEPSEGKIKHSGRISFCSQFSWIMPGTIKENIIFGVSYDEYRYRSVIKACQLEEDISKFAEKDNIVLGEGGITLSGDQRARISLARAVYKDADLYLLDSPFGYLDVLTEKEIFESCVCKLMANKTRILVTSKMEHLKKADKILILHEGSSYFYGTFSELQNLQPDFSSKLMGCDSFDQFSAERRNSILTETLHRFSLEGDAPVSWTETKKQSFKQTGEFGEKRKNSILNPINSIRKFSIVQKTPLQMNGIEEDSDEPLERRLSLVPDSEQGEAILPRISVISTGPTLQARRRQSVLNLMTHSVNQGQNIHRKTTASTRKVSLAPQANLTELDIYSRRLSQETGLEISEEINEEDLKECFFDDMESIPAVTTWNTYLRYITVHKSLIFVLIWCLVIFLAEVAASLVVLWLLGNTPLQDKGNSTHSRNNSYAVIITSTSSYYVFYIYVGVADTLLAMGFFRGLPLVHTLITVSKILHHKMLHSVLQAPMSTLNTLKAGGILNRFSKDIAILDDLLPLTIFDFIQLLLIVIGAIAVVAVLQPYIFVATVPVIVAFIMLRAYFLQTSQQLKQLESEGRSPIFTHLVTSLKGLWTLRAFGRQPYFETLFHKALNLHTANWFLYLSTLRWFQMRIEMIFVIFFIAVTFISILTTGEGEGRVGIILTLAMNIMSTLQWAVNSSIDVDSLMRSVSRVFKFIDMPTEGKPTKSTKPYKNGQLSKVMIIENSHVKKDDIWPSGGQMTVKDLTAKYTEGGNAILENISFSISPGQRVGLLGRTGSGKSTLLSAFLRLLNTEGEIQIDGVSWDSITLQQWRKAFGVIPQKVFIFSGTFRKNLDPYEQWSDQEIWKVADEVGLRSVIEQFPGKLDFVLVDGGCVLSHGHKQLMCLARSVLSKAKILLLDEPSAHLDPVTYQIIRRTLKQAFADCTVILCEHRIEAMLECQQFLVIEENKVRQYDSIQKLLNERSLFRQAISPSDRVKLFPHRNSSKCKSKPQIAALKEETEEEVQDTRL
Assay: YFP-halide influx assay for the CFTR-G551D mutation (HEK293 cells)
Assay type: cell-based
Settings: forskolin 10.67 μM
Decide by % Activation: equal to or exceeding 40% means Y, less means N.

q: For this compound, is measured % Activation 40% or higher? Nc1cc(S(=O)(=O)c2ccccc2)cnc1C(=O)N1CC(O)(C(F)(F)F)C1
a: Y

q: Item COC1CCN(S(=O)(=O)c2cnc(C(=O)NCC(O)C(F)(F)F)c(N)c2)CC1 (stereo not drawn) with % Activation of 40% or above?
a: Y

q: Test whether the compound Nc1cc(S(=O)(=O)c2ccc(OC(F)(F)F)cc2)cnc1C(=O)N1CC(F)C1 records % Activation of 40% or higher.
a: Y

q: Please check the record CC(C)(O)CNC(=O)c1ncc(S(=O)(=O)c2ccc(C(F)(F)F)cc2)cc1N and state if its % Activation is at or above 40%.
a: Y

q: Does % Activation meet or surpass 40% for COCCN(C)S(=O)(=O)c1cnc(C(=O)NC[C@H](C)O)c(N)c1 ?
a: N
